All figures here come from patent US10556936B2.

Tested on: basophils in whole blood from HDM allergic donors
Assay: Basophil Activation Test (BAT)
Type: cell-based, human
Settings: 100 ng/ml; blood from HDM allergic individuals (n=14)
metricName: # of individuals of 14 with positive BAT test
Could you keep your reply to the number by itself?

- molecule: "A016: house dust mite protein; SEQ ID NO: 28 (Der f), 29 (Der p) (protein) MVKIGINGFGRIGRLVLRAAIKKGVEVAAINDPFLDVKYMVYMFKFDSTHGRYQGEVKEEGGLLVVDGQKIQVFQERNPAEIPWGKVGADYVVESTGVFTTIEKAKAHLAGGAKKVIISAPSADAPMYVMGVNHDKYDPKQQIISNASCTTNCLAPLAKVINDKFGIENGLMTTVHAITATQKTVDGPSGKLWRDGRGAGQNIIPASTGAAKAVGKVIPELNGKLTGMALRVPVPDVSVVDLTVTLKNPASYDEIKAAVKAAAESDHWKGILEYTDEEVVSSDFISDTHSSIFDAKAGIALTPTFVKLIAWYDNEFGYSNRVVDLIKYVASK"
  testValue: 0

// query Reported # of individuals of 14 with positive BAT test, molecule A024: house dust mite protein; SEQ ID NO: 11 (Der f), 12 (Der p), 318 (Blo t) (protein) MSISAHGGGLVNGIAGMENKFTVFTSGKPVSGLTVAFEGPTKPEINFNSTKDGSVDVGYIPKAGGQYKIHIKYEGKEIVGSPFKCNISGDESTHRKLTEKVKVGGPNISTGKVNQDNQLTIDCKEAGITGGISFAMEGPAKVEVSFRNNNDGTITVIYKPPTPGDYKLHLKFNDIHLPGSPYPIVVSA : ____
// result 3
